System: SK-MEL-28
Experiment: NCI tumour cell line growth inhibition, 48 h
Activity calls are given as the source filed them. No stated cut-off is given here; in the data, active = GI50 up to about 1.1 µM and inactive = higher.
Readout type: GI50

Molecule	Readout type	Result
CCCNC(=O)CCC(C)C1CCC2C3C(C[C@H](OC(C)=O)[C@]12C)[C@@]1(C)CCC2(C[C@H]1C[C@H]3OC(C)=O)OOC1(CC[C@]3(C)C4C[C@H](OC(C)=O)[C@]5(C)C(C(C)CCC(=O)NCCC)CCC5C4[C@H](OC(C)=O)C[C@@H]3C1)OO2 (stereo partly specified)	GI50	> 100 µM (inactive)
Cn1cc(NC(=O)c2cc(NC(=O)CCCCCCCCC(=O)Nc3cc(C(=O)Nc4cc(C(=O)NCCC(N)N)n(C)c4)n(C)c3)cn2C)cc1C(=O)NCCC(=N)N	GI50	12.1 µM (inactive)
C[C@]12C=CC(=O)C=C1CC[C@@H]1[C@@H]2C(=O)C[C@@]2(C)[C@H]1CC[C@]2(O)C(=O)CO [PREDNISONE]	GI50	> 100 µM (inactive)
CCCCCCCCCCCCCCCCCCNC(=S)N/C=C1\C(=O)Nc2ccccc2C1=O	GI50	16.5 µM (inactive)
Cc1nc2ccc(Cl)cc2c(Cl)c1CCCl	GI50	> 100 µM (inactive)
COc1cc2cc(C(=O)N3CC(CCl)c4c3cc([N+](C)(C)Cc3ccc([N+](=O)[O-])n3C)c3ccccc43)[nH]c2c(OC)c1OC (stereo unspecified)	GI50	2.33 µM (inactive)

* * *

Tested on: SF-295
Assay: NCI tumour cell line growth inhibition, 48 h
Calls of active or inactive are those of the source. No stated cut-off is given here; in the data, active = GI50 up to about 1.1 µM and inactive = higher.
Possible outcomes: active, inactive

>>> df
                                   molecule  class_assignment
0      COCCOC1=C(Cl)C(=O)c2c(O)ccc(O)c2C1=O          inactive
1                   CCN(CC)Cc1ccc2cccnc2c1O          inactive
2                          O=Cc1ccc(CCl)cc1          inactive
3  CCCCC(NC(=O)CC)C(=O)O (stereo not drawn)          inactive
4  O=C(NNc1cn[nH]c(=O)n1)c1cccc2nc3ccccc3nc12          inactive
5  COC(=O)c1ccc(C)cc1C1CN=NC12Cc1cc(C)ccc1C2=O (stereo not drawn)          inactive
6  O=C(O)c1cc(C(=O)C(=O)c2cc(C(=O)O)c(O)c3ccccc23)c2ccccc2c1O          inactive
7  Nc1ccc(C2(c3ccc(N)cc3)C3CC4CC(C3)CC2C4)cc1            active

* * *

Test system: CAKI-1
Assay: NCI tumour cell line growth inhibition, 48 h
Calls of active or inactive are those of the source. Cut-off read from the data, not from the text of the source: active = GI50 up to about 1.1 µM and inactive = higher. Where a SMILES comes first, the peptide text is derived from it. [ ]: non-standard residue; d: D form. The star is where a group is joined. ξ: configuration not given here. NMeF = CN[C@@H](Cc1ccccc1)C(=O)O; NMeV = CN[C@H](C(=O)O)C(C)C; ξNMeN = CNC(CC(N)=O)C(=O)O; NMeA = CN[C@@H](C)C(=O)O; ξNMeV = CNC(C(=O)O)C(C)C; Boc = CC(C)(C)OC(=O)*
Readout type: GI50

Molecule	Result
Cc1cn2c(/C=N/NC(=N)N)c(-c3cccc([N+](=O)[O-])c3)nc2s1	2.42 µM (inactive)
COC(=O)C(C(=O)C(=O)Nc1nnc(S)[nH]1)c1csc(N)n1 (stereo not drawn)	> 100 µM (inactive)
COC(=O)C1=C(C)N(NC(=O)c2cccc(Cl)c2)C(C)(O)C12CCOC2=O (stereo not drawn)	> 100 µM (inactive)
CCC(=O)C(c1ccccc1)c1ccccn1 (stereo not drawn)	> 100 µM (inactive)
COC(=O)/C(C)=C(/CCC1(C)OCCO1)O[Si](C)(C)C	> 100 µM (inactive)
CC1(C)Cc2c(c3ccccc3c3nc4c(nc23)c2c(c3ccccc34)OC(C)(C)C2)O1	> 100 µM (inactive)
NC(=S)N/C=C1\C(=O)Oc2ccccc2C1=O	20.7 µM (inactive)
CCOC(=O)C1(C)C2=CC=C(O2)C(C)(C)C2=CC=C(O2)C(C)(C)C2=CC=C(O2)C(C)(C)C2=CC=C1O2	> 100 µM (inactive)
CCCCCCC(/C=N/O)C(C)(O)CCC (stereo not drawn)	> 100 µM (inactive)
COC(=O)[C@H](C)N(C)C(=O)C(CC(N)=O)N(C)C(=O)[C@H](Cc1ccccc1)N(C)C(=O)[C@@H]1CCCN1C(=O)[C@H](C(C)C)N(C)C(=O)C(C(C)C)N(C)C(=O)[C@@H](NC(=O)OC(C)(C)C)C(C)C (stereo partly drawn) (Boc-V[ξNMeV][NMeV]P[NMeF][ξNMeN][NMeA]-OMe)	> 50 µM (inactive)
COC(=O)c1ccc(C)cc1C1CN=NC12Cc1cc(C)ccc1C2=O (stereo not drawn)	11.8 µM (inactive)
O=C(O)C(O)C(O)C(O)C(O)c1nc2ccccc2s1 (stereo not drawn)	17.7 µM (inactive)
O=C(O)c1cc(C(=O)C(=O)c2cc(C(=O)O)c(O)c3ccccc23)c2ccccc2c1O	> 100 µM (inactive)
